Quick reference: IC50 of the listed items.
Tested on: HL-60
Test: Cytotoxicity against Homo sapiens (human) HL60 cells assessed as growth inhibition after 48 hr by MTT assay
Assay type: functional, cell-based
Conditions: HL-60, 48 h

{"STRUCTURE": "CCCC(=O)OCCNC(=O)c1ccc(C(=O)Nc2ccc3c(c2)C(C)(C)CCC3(C)C)cc1", "TESTED SYSTEM": "HL-60", "UNIT STRING": "µM", "COMPARATIVE SIGN": "=", "IC50": 36.8}
{"STRUCTURE": "CCCC(=O)OCCCCOC(=O)c1ccc(C(=O)Nc2ccc3c(c2)C(C)(C)CCC3(C)C)cc1", "TESTED SYSTEM": "HL-60", "UNIT STRING": "µM", "COMPARATIVE SIGN": "=", "IC50": 7.32}
{"STRUCTURE": "CCCC(CCC)C(=O)OCCNC(=O)c1ccc(C(=O)Nc2ccc3c(c2)C(C)(C)CCC3(C)C)cc1", "TESTED SYSTEM": "HL-60", "UNIT STRING": "µM", "COMPARATIVE SIGN": ">", "IC50": 1000}
{"STRUCTURE": "Cc1cc2c(cc1C(=O)c1ccc(C(=O)NCCCCCCNC(=O)c3ccc(C(=O)Nc4ccc5c(c4)C(C)(C)CCC5(C)C)cc3)cc1)C(C)(C)CCC2(C)C", "TESTED SYSTEM": "HL-60", "UNIT STRING": "µM", "COMPARATIVE SIGN": "=", "IC50": 95.4}
{"STRUCTURE": "CCCC(CCC)C(=O)NCCNC(=O)c1ccc(C(=O)Nc2ccc3c(c2)C(C)(C)CCC3(C)C)cc1", "TESTED SYSTEM": "HL-60", "UNIT STRING": "µM", "COMPARATIVE SIGN": "=", "IC50": 12.4}
{"STRUCTURE": "C=C(c1ccc(C(=O)NCCNC(=O)c2ccc(C(=O)Nc3ccc4c(c3)C(C)(C)CCC4(C)C)cc2)cc1)c1cc2c(cc1C)C(C)(C)CCC2(C)C", "TESTED SYSTEM": "HL-60", "UNIT STRING": "µM", "COMPARATIVE SIGN": "=", "IC50": 14.8}
{"STRUCTURE": "Cc1cc2c(cc1C(=O)c1ccc(C(=O)NCCOC(=O)c3ccc(C(=O)Nc4ccc5c(c4)C(C)(C)CCC5(C)C)cc3)cc1)C(C)(C)CCC2(C)C", "TESTED SYSTEM": "HL-60", "UNIT STRING": "µM", "COMPARATIVE SIGN": "=", "IC50": 37.5}
{"STRUCTURE": "Cc1cc2c(cc1C(=O)c1ccc(C(=O)OCCCCOC(=O)c3ccc(C(=O)Nc4ccc5c(c4)C(C)(C)CCC5(C)C)cc3)cc1)C(C)(C)CCC2(C)C", "TESTED SYSTEM": "HL-60", "UNIT STRING": "µM", "COMPARATIVE SIGN": "=", "IC50": 24.7}
{"STRUCTURE": "C=C(c1ccc(C(=O)OCCCCOC(=O)c2ccc(C(=O)Nc3ccc4c(c3)C(C)(C)CCC4(C)C)cc2)cc1)c1cc2c(cc1C)C(C)(C)CCC2(C)C", "TESTED SYSTEM": "HL-60", "UNIT STRING": "µM", "COMPARATIVE SIGN": "=", "IC50": 25.1}
{"STRUCTURE": "CCCC(=O)OCCCOC(=O)c1ccc(C(=O)Nc2ccc3c(c2)C(C)(C)CCC3(C)C)cc1", "TESTED SYSTEM": "HL-60", "UNIT STRING": "µM", "COMPARATIVE SIGN": "=", "IC50": 2.99}
{"STRUCTURE": "CCCC(CCC)C(=O)OCCOC(=O)c1ccc(C(=O)Nc2ccc3c(c2)C(C)(C)CCC3(C)C)cc1", "TESTED SYSTEM": "HL-60", "UNIT STRING": "µM", "COMPARATIVE SIGN": "=", "IC50": 256}

====

Reported IC50 is given for each of the following compounds.
System: HL-60
Assay: Cytotoxicity against Homo sapiens (human) HL60 cells assessed as growth inhibition after 48 hr by MTT assay
Assay type: functional, cell-based
Settings: HL-60, 48 h

{"STRUCTURE": "CCCC(=O)OCCOC(=O)c1ccc(C(=O)Nc2ccc3c(c2)C(C)(C)CCC3(C)C)cc1", "UNIT STRING": "µM", "IC50": 6.29}
{"STRUCTURE": "C=C(c1ccc(C(=O)OCCOC(=O)c2ccc(C(=O)Nc3ccc4c(c3)C(C)(C)CCC4(C)C)cc2)cc1)c1cc2c(cc1C)C(C)(C)CCC2(C)C", "UNIT STRING": "µM", "IC50": 30.7}
{"STRUCTURE": "CCCC(CCC)C(=O)OCCCOC(=O)c1ccc(C(=O)Nc2ccc3c(c2)C(C)(C)CCC3(C)C)cc1", "UNIT STRING": "µM", "IC50": 835}
{"STRUCTURE": "Cc1cc2c(cc1C(=O)c1ccc(C(=O)OCCOC(=O)c3ccc(C(=O)Nc4ccc5c(c4)C(C)(C)CCC5(C)C)cc3)cc1)C(C)(C)CCC2(C)C", "UNIT STRING": "µM", "IC50": 6.83}

====

System: HL-60
Assay: Cytotoxicity against Homo sapiens (human) HL60 cells assessed as growth inhibition after 48 hr by MTT assay
Type: functional, cell-based
Details: HL-60, 48 h
Listed here are compounds together with their documented IC50.

{"STRUCTURE": "C=C(c1ccc(C(=O)NCCOC(=O)c2ccc(C(=O)Nc3ccc4c(c3)C(C)(C)CCC4(C)C)cc2)cc1)c1cc2c(cc1C)C(C)(C)CCC2(C)C", "UNIT STRING": "µM", "IC50": 504}
{"STRUCTURE": "Cc1cc2c(cc1C(=O)c1ccc(C(=O)OCCCOC(=O)c3ccc(C(=O)Nc4ccc5c(c4)C(C)(C)CCC5(C)C)cc3)cc1)C(C)(C)CCC2(C)C", "UNIT STRING": "µM", "IC50": 14.9}
{"STRUCTURE": "CCCC(CCC)C(=O)OCCCCOC(=O)c1ccc(C(=O)Nc2ccc3c(c2)C(C)(C)CCC3(C)C)cc1", "UNIT STRING": "µM", "IC50": 914}
{"STRUCTURE": "C=C(c1ccc(C(=O)NCCCCCCNC(=O)c2ccc(C(=O)Nc3ccc4c(c3)C(C)(C)CCC4(C)C)cc2)cc1)c1cc2c(cc1C)C(C)(C)CCC2(C)C", "UNIT STRING": "µM", "IC50": 70.7}
{"STRUCTURE": "CCCC(=O)NCCNC(=O)c1ccc(C(=O)Nc2ccc3c(c2)C(C)(C)CCC3(C)C)cc1", "UNIT STRING": "µM", "IC50": 5.61}
{"STRUCTURE": "C=C(c1ccc(C(=O)OCCCOC(=O)c2ccc(C(=O)Nc3ccc4c(c3)C(C)(C)CCC4(C)C)cc2)cc1)c1cc2c(cc1C)C(C)(C)CCC2(C)C", "UNIT STRING": "µM", "IC50": 19.2}
{"STRUCTURE": "Cc1cc2c(cc1C(=O)c1ccc(C(=O)NCCNC(=O)c3ccc(C(=O)Nc4ccc5c(c4)C(C)(C)CCC5(C)C)cc3)cc1)C(C)(C)CCC2(C)C", "UNIT STRING": "µM", "IC50": 14.3}

====

Catalogue of pIC50 values
System: NB-4
Test: Cytotoxicity against Homo sapiens (human) NB4 cells assessed as growth inhibition after 48 hr by MTT assay
Assay type: functional, cell-based
Conditions: NB-4, 48 h
pIC50: −log10 of the molar value.

{"STRUCTURE": "Cc1cc2c(cc1C(=O)c1ccc(C(=O)NCCNC(=O)c3ccc(C(=O)Nc4ccc5c(c4)C(C)(C)CCC5(C)C)cc3)cc1)C(C)(C)CCC2(C)C", "COMPARATIVE SIGN": "=", "pIC50": 3.98}
{"STRUCTURE": "CCCC(CCC)C(=O)NCCNC(=O)c1ccc(C(=O)Nc2ccc3c(c2)C(C)(C)CCC3(C)C)cc1", "COMPARATIVE SIGN": "=", "pIC50": 5.24}
{"STRUCTURE": "Cc1cc2c(cc1C(=O)c1ccc(C(=O)NCCCCCCNC(=O)c3ccc(C(=O)Nc4ccc5c(c4)C(C)(C)CCC5(C)C)cc3)cc1)C(C)(C)CCC2(C)C", "COMPARATIVE SIGN": "<", "pIC50": 3.00}
